Data origin, for the record: patent US20250333515A1

tested-on: biotinylated recombinant human CLL-1 extracellular domain protein, isoform with glutamine at amino acid position 244 (human) (UniProt Q5QGZ9)
Sequence (Q5QGZ9 65-265): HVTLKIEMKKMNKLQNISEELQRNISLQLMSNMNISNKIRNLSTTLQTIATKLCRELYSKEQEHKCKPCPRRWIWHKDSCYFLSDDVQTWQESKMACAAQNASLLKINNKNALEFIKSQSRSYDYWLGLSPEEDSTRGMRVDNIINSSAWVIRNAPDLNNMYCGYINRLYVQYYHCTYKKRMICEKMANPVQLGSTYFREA
assay-name: EC50 table, CLL-1 Q244; reciprocals of the ELISA bars of FIG. 8B
Each item that follows carries a reported pEC50.
For clarity, pEC50 is expressed as the negative log10 of concentration in mol/L.

Looking for the measured pEC50 of Anti-CLL-1 Binder Clone 97 (VHH) VHH: QVQLVQSGGGLVQPGGSLRLSCAASDFDFDDDSMDWVRQAPGKGLEWIGSVLHDGATYYNPSLKSRVTISRDNSKNTLYLQMNTLRAEDTATYYCTRSALYGDAAFDVWAQGTMVTVSS , can you help?
8.89

Report pEC50 for Anti-CLL-1 Binder Clone 99 (VHH) VHH: QVQLVQSGGGLVQPGGSLRLSCAASAFDFYSYEMSWVRQAPGKGLEWVSYIGPIGTDIGYADSVKGRFTISRDNSKNTLYLQMNTLRAEDTAMYYCAKDPYYDSTGLTSYWGQGTLVTVSS please.
7.06

Requested field: pEC50. Item: Anti-CLL-1 Binder Clone 94 (VHH) VHH: QVQLVQSGGGLVQPGGSLRLSCAASYFDFAAYDMDWVRQAPGQRLEWVAKISHDGSYSWYADSVKGRFTISRDNSKNTLYLQMNTLRAEDTAVYYCVRGEGGSERADYWGRGTLVTVSS
7.05

Fill in: pEC50 of Anti-CLL-1 Binder Clone 102 (VHH) VHH: QVQLVQSGGGLVQPGGSLRLSCAASYFSFADYEMSWVRQAPGQRLEWVAVVSKDGNELYYADSVKGRFTISRDNSKNTLYLQMNTLRAEDTAVYYCVKDPYDFWSGYYSNWGQGTLVTVSS is ___
8.60

So what's the measured pEC50 for this one? Anti-CLL-1 Binder Clone 100 (VHH) VHH: QVQLVQSGGGLVQPGGSLRLSCAASDFDFDDDSMDWVRQAPGKALEWIGSVSYSGQTFYNPSLKSRVTISRDNSKNTLYLQMNTLRAEDTAMYYCTRSALYGDAAFDVWAQGTMVTVSS
9.23
